tested on: HOP-92 NSCLC; experiment: NCI-60 one-dose screen, 48 h (100 = growth as untreated, 0 = no growth, -100 = all killed); details: 10 µM unless noted
Compounds without any hit were thinned out: in the full panel of roughly 83,000, 20% have a hit. Calls of active or inactive are those of the source. The calls were made as follows: active = growth percent below 10; inactive = the rest.
reported endpoint: growth

Ask: Look up growth of "O=C(Nc1cnc(Nc2ccc(N3CCOCC3)nc2)nc1Oc1ccc(C(F)(F)F)cc1)c1ccncc1" and report it.
Reply: 94.1% (inactive)

Ask: Look up growth of "COc1ccc2c(c1)/C(=N/c1n[nH]c(=S)s1)C(=O)N2" and report it.
Reply: 92.8% (inactive)

Ask: Look up growth of "CCCCNC(=O)c1cc([N+](=O)[O-])cc(C2CCCCC2)c1O" and report it.
Reply: -13.6% (active)

Ask: Look up growth of "Cn1ccc(=O)nc1" and report it.
Reply: 104% (inactive)

Ask: Look up growth of "Oc1c(CN2CCC(N3CCCCC3)CC2)cc(Cc2cc(CN3CCC(N4CCCCC4)CC3)c(O)c3ncccc23)c2cccnc12" and report it.
Reply: 30.5% (inactive)

Ask: Look up growth of "CCn1cc(CNc2ccc(C(=O)Nc3cc4cc(OC)c(OC)cc4c(C)n3)cc2)cn1" and report it.
Reply: 59.5% (inactive)

Ask: Look up growth of "O=C1/C(=C/c2ccc(O)c(O)c2)COc2ccc(-c3ccccc3)cc21" and report it.
Reply: 1.73% (active)

Ask: Look up growth of "Cc1ccnc(Nc2ccc([N+](=O)[O-])c(NCCN3CCOCC3)n2)c1" and report it.
Reply: 138% (inactive)

Ask: Look up growth of "CCOC(=O)c1cnc2c(N=Nc3ccc(OC)cc3)c(N)nn2c1N" and report it.
Reply: 113% (inactive)

Ask: Look up growth of Nc1nc(N)c2c(n1)NC(c1cccc(Nc3ccnc4cc(C(F)(F)F)ccc34)c1)CC(c1ccc(Br)cc1)=N2 (stereo not given) and report it.
Reply: 42.8% (inactive)

Ask: Look up growth of "Cc1ccc(C(=O)c2ccc(CC(=O)N=Nc3c(O)[nH]c4ccc(Br)cc34)n2C)cc1" and report it.
Reply: 106% (inactive)

Ask: Look up growth of CCN1C(=O)N(CC)C2C1NN=c1s/c(=C\c3ccc[nH]3)c(=O)n12 (stereo not given) and report it.
Reply: 54.2% (inactive)

Ask: Look up growth of "CN1CCN(CC(=O)Nc2ccc3ncnc(Nc4ccc(Oc5cccc(C(F)(F)F)c5)c(Cl)c4)c3c2)CC1" and report it.
Reply: 39.7% (inactive)

Ask: Look up growth of "CCN(CC)Cc1cc(Nc2ccnc3cc(Cl)ccc23)ccc1O" and report it.
Reply: 88.5% (inactive)

Ask: Look up growth of "Cc1ccc(C)c2c(C)c(C(=O)Nc3cccc(-n4cccn4)c3)oc12" and report it.
Reply: 90.8% [50 µM] (inactive)

Ask: Look up growth of "Cc1ccc(-c2csc(NC(=O)c3ccccc3CN3C(=O)c4ccccc4C3=O)n2)cc1" and report it.
Reply: 89.6% (inactive)

Ask: Look up growth of "O=C(CCCCCCN1CC(=O)N2[C@H](c3ccc(Cl)cc3)c3[nH]c4ccccc4c3C[C@@H]2C1=O)NO" and report it.
Reply: 44.4% (inactive)

Ask: Look up growth of "COc1cc(-c2nc3sccn3c2-c2ccnc(NCCNS(=O)(=O)c3ccc(Cl)cc3)n2)ccc1F" and report it.
Reply: 78.8% (inactive)

Ask: Look up growth of "O=C(/C=C(O)/C=C/c1cccc2[nH]ccc12)/C=C/c1cccc2[nH]ccc12" and report it.
Reply: 62.1% (inactive)

Ask: Look up growth of "Clc1c(Cl)[n+](Cc2ccc3ccccc3c2)cn1Cc1ccc2ccccc2c1" and report it.
Reply: -12.1% (active)

---

tested on: HOP-62 NSCLC; assay: NCI-60 one-dose screen, 48 h; conditions: 10 µM unless noted
About 83,000 compounds went through this panel and 20% of them were active in at least one assay; those are over-represented in the sample as a whole. Activity calls are given as the source filed them. How the source made its calls: active means growth percent below 10; inactive means the rest.
Mark one answer only. Choices: T = active, F = inactive

Ask: Which outcome was assigned to "CC(=C(c1ccc(OCCN2CCCCC2)cc1)c1ccc(OCCN2CCCCC2)cc1)c1ccc(Cl)cc1" in this test?
Reply: T

Ask: Which outcome was assigned to "CCCCNC(=O)Oc1ccc(/C(=C(/C)Cc2ccc(OC)cc2)c2ccc(OCCN3CCCCC3)cc2)cc1" in this test?
Reply: F

Ask: Which outcome was assigned to "N#C/C(=C\c1ccc(-c2cccc(C(F)(F)F)c2)o1)c1ccccc1" in this test?
Reply: F

Ask: Which outcome was assigned to "CCN1CCN(CCNc2nccc(-c3c(-c4ccc(F)c(OC)c4)nc4sccn34)n2)S1(=O)=O" in this test?
Reply: F

Ask: Which outcome was assigned to "C=Cc1cnc(Nc2ccc(OC)cc2)nc1NCCCNC(=O)C1CCC1" in this test?
Reply: F

Ask: Which outcome was assigned to "C#CCO[C@H]1CC(CC#C)(CC#C)C(=O)[C@@H]2[C@H]1[C@H]1C[C@@H]3[C@@]4(C)CCC[C@@](C)(C(=O)OC)[C@@H]4CC[C@@]23C=C1C(C)C" in this test?
Reply: F

Ask: Which outcome was assigned to "COc1ccc(/C=C(/c2ccccc2)[N+](=O)[O-])c(OC)c1" in this test?
Reply: T

Ask: Which outcome was assigned to "C[C@H](CCCC(=O)NCC#CCN1CCN(C)CC1)[C@H]1CC[C@H]2[C@@H]3CC[C@@H]4CC(=O)CC[C@]4(C)[C@H]3CC[C@]12C" in this test?
Reply: F

Ask: Which outcome was assigned to "O=c1nc(-c2ccccc2)c2cc(-c3ccc(C(F)(F)F)nc3)ccc2[nH]1" in this test?
Reply: F

Ask: Which outcome was assigned to "CCCCNC(=O)Oc1ccc(/C(=C(/C)Cc2ccc(OC)cc2)c2ccc(OCCN3CCCCCC3)cc2)cc1" in this test?
Reply: F

Ask: Which outcome was assigned to N#CC1CCc2c(c(-c3ccc4nc(N)sc4c3)nc3ccc4[nH]ncc4c23)C1 (stereo not given) in this test?
Reply: F

Ask: Which outcome was assigned to "COc1ccc(-c2ccc(-c3ccc(C(=N)N)nc3)s2)cc1Cl" in this test?
Reply: T

Ask: Which outcome was assigned to "CCCCCCCCCCCCCCCCCCOc1ccccc1CC(=O)NCC[N+]1(C)CCCCC1" in this test?
Reply: F

Ask: Which outcome was assigned to "CN1CCN(CC(=O)Nc2ccc3ncnc(Nc4ccc(Oc5cccc(C(F)(F)F)c5)c(Cl)c4)c3c2)CC1" in this test?
Reply: F

Ask: Which outcome was assigned to "O=C1NC(=O)/C(=C/c2c(-c3ccccc3)nc3sc(COc4ccccc4)nn23)S1" in this test?
Reply: F

Ask: Which outcome was assigned to "COc1ccc2c(c1)CCc1[nH]nc(-c3cc(OC)c(OC)c(OC)c3)c1-2" in this test?
Reply: F

Ask: Which outcome was assigned to "[2H]C([2H])([2H])Oc1ccc(F)cc1/C=C/C(=O)/C=C(/C=C/c1cc(F)ccc1OC([2H])([2H])[2H])OB(F)F" in this test?
Reply: F

Ask: Which outcome was assigned to "CCc1ccc(CCC(=O)Nc2ncc(Cc3ccccc3)s2)o1" in this test?
Reply: F

Ask: Which outcome was assigned to "COc1ccc(C(=O)Cn2c(C(=O)c3ccc(Cl)cc3)nc3ccccc32)cc1" in this test?
Reply: F

Ask: Which outcome was assigned to Cc1nc2sc(C(=O)Nc3cccc(Br)c3C)c(N)c2cc1C(O)c1ccccc1 (stereo not given) in this test?
Reply: F

Ask: Which outcome was assigned to "Cc1cc2c(cc1C)N(C(=O)CCl)CC(=O)N2" in this test?
Reply: F

Ask: Which outcome was assigned to "O=C(NNc1cnccn1)c1nc2cc(F)ccc2n2cccc12" in this test?
Reply: F

Ask: Which outcome was assigned to CN(C)CCCC1(c2ccc(F)cc2)OCc2cc(-c3cc4ccccc4s3)ccc21 (stereo not given) in this test?
Reply: T

Ask: Which outcome was assigned to "O=C(CCSc1nnc2n(Cc3ccccc3)c(=O)c3c4c(sc3n12)CCCC4)N1CCN(c2ccccc2)CC1" in this test?
Reply: F

Ask: Which outcome was assigned to "O=C(/C=C/c1ccc(Cl)cc1)c1cccc(OCCCOc2cccc(C(=O)/C=C/c3ccc(Cl)cc3)c2)c1" in this test?
Reply: F

Ask: Which outcome was assigned to "CSC(SC)=C(C#N)c1nc2ccccc2s1" in this test?
Reply: F

Ask: Which outcome was assigned to "N[C@H]1CCC[C@@H]1NCCCCN1C(=O)c2cccc3cc([N+](=O)[O-])cc(c23)C1=O" in this test?
Reply: F

Ask: Which outcome was assigned to COc1ccc(CCN(CC(=O)N(CC(N)=O)C2CCC[C@@H]2OCc2ccccc2)C(=O)CN(C(=O)CN(CCc2ccc(Cl)cc2)C(=O)CN(C(=O)CN(C)Cc2ccccc2F)[C@H](C)C2CCCCC2)[C@H](C)C2CCCCC2)cc1OC (stereo not given in full) in this test?
Reply: F

Ask: Which outcome was assigned to N#Cc1ccc(O)c(C2=NCC(Cc3ccccc3)O2)c1 (stereo not given) in this test?
Reply: F

Ask: Which outcome was assigned to CO[C@H](C(=O)[C@@H](O)[C@@H](C)O)[C@@H]1Cc2cc3cc(O[C@H]4C[C@@H](O[C@H]5C[C@@H](O)[C@H](O)C(C)O5)[C@H](O)C(C)(O)O4)cc(O)c3c(O)c2C(=O)[C@H]1O[C@H]1C[C@@H](O[C@H]2C[C@@H](O[C@H]3C[C@@H](OC)[C@H](O)C(C)O3)[C@@H](O)C(C)O2)[C@H](O)C(C)O1 (stereo not given in full) in this test?
Reply: T

Ask: Which outcome was assigned to "CN1CCN(CCOc2ccc(-c3cnc4c(-c5ccc(F)cc5)cnn4c3)cc2)CC1" in this test?
Reply: F

Ask: Which outcome was assigned to "CN(Cc1cc(Br)cc(Br)c1O)Cc1cc(Br)cc(Br)c1O" in this test?
Reply: F

Ask: Which outcome was assigned to "Cn1cc(-c2csc(-c3cn(CCCN4CCOCC4)c4ccccc34)n2)c2cccnc21" in this test?
Reply: F

Ask: Which outcome was assigned to CCCn1nc(C(=O)N(C)Cc2ccccc2)c2c1CCC(N1CCc3ccccc31)C2 (stereo not given) in this test?
Reply: F

Ask: Which outcome was assigned to "O=C(Nc1ncc(Cc2cc(C(F)(F)F)ccc2Cl)s1)c1cccs1" in this test?
Reply: F
